Reported kinase still bound, per cent of control is given for each of the following compounds.
assay.system: FGR (human)
test.description: KINOMEscan competition binding
run.conditions: compound 10.0 µM

{"structure.smiles": "CN(C)C/C=C/C(=O)Nc1ccc(C(=O)Nc2cccc(Nc3nccc(-c4cccnc4)n3)c2)cc1", "kinase still bound, per cent of control (%)": 86}
{"structure.smiles": "CS(=O)(=O)N1CCN(Cc2cc3nc(-c4cccc5[nH]ncc45)nc(N4CCOCC4)c3s2)CC1", "kinase still bound, per cent of control (%)": 100}
{"structure.smiles": "N#CCNC(=O)c1ccc(-c2ccnc(Nc3ccc(N4CCOCC4)cc3)n2)cc1", "kinase still bound, per cent of control (%)": 92}
{"structure.smiles": "COc1cc(C(=O)N2CCC(N3CCN(C)CC3)CC2)ccc1Nc1ncc2c(n1)N(C)c1ccccc1C(=O)N2C", "kinase still bound, per cent of control (%)": 84}
{"structure.smiles": "CCN1CCN(C(=O)Cc2ccc(Nc3ncc(F)c(Nc4ccc(C(=O)Nc5ccccc5Cl)cc4)n3)cc2)CC1", "kinase still bound, per cent of control (%)": 43}
{"structure.smiles": "NC(=O)Nc1cc(-c2cccc(F)c2)sc1C(=O)N[C@@H]1CCCNC1", "kinase still bound, per cent of control (%)": 0.2}
{"structure.smiles": "C=CC(=O)Nc1cc(-n2c(=O)ccc3cnc4ccc(-c5cn[nH]c5)cc4c32)ccc1C", "kinase still bound, per cent of control (%)": 57}
{"structure.smiles": "Cc1n[nH]c2ccc(-c3cncc(OC[C@@H](N)Cc4c[nH]c5ccccc45)c3)cc12", "kinase still bound, per cent of control (%)": 100}
{"structure.smiles": "C=CC(=O)Nc1ccc(CN(C(=O)Nc2c(Cl)c(OC)cc(OC)c2Cl)c2cc(Nc3ccc(N4CCN(C)CC4)cc3)ncn2)cc1", "kinase still bound, per cent of control (%)": 7}
{"structure.smiles": "O=c1cc(N2CCOCC2)oc2c(-c3cccc4c3sc3ccccc34)cccc12", "kinase still bound, per cent of control (%)": 92}
{"structure.smiles": "CCN(CC)CCCCNc1ncc2cc(-c3cc(OC)cc(OC)c3)c(NC(=O)NC(C)(C)C)nc2n1", "kinase still bound, per cent of control (%)": 100}
{"structure.smiles": "CNC(=O)c1ccc(Nc2cc(Nc3ccccc3S(=O)(=O)C(C)C)c3cc[nH]c3n2)nc1", "kinase still bound, per cent of control (%)": 5}
{"structure.smiles": "COc1ccc(N(C(=O)Oc2c(C)cccc2C)c2ccnc(Nc3ccc(N4CCN(C)CC4)cc3)n2)c(OC)c1", "kinase still bound, per cent of control (%)": 0.15}
{"structure.smiles": "COc1cc2ncn(-c3cc(OCc4ccccc4C(F)(F)F)c(C(N)=O)s3)c2cc1OC", "kinase still bound, per cent of control (%)": 63}
{"structure.smiles": "O=C1NC(=O)/C(=C/c2ccc3nccc(-c4ccncc4)c3c2)S1", "kinase still bound, per cent of control (%)": 69}
{"structure.smiles": "C[C@@H](Oc1cc(-c2cnn(C3CCNCC3)c2)cnc1N)c1c(Cl)ccc(F)c1Cl", "kinase still bound, per cent of control (%)": 6.8}
{"structure.smiles": "CCN(CC)CCCCNc1ncc2c(n1)N(C)C(=O)N(c1c(Cl)c(OC)cc(OC)c1Cl)C2", "kinase still bound, per cent of control (%)": 100}
{"structure.smiles": "COCC(=O)NC/C=C/c1ccc2ncnc(Nc3ccc(Oc4ccc(C)nc4)c(C)c3)c2c1", "kinase still bound, per cent of control (%)": 89}
{"structure.smiles": "COc1cc2ncnc(-n3nc(-c4ccccn4)nc3N)c2cc1OC", "kinase still bound, per cent of control (%)": 36}

Recorded values, source the kinase profiling compilation of Christmann-Franck et al. (2016).
